- Experiment description: soluble fraction after stress (log2 fold change); higher = more stays soluble; pooled small domains, quantitative proteomics
- Reported conditions: stress: 50 degC
Metric name: soluble fraction (log2)
I only need the number, thanks.

Req: Identify measured soluble fraction (log2) associated with HMPPGQIVNEALQRAGNSTPTGTAISAQDDIKLYTSALAELATQGDTSSASVAKLREALQTAQVAFYNAV
Resp: 0.0769

Req: Supply soluble fraction (log2) value. Item: HMAVPTHVEFPVVGLQRSGITSLEQAIATVPGVSKAVVNVSDNRIFVDYDPTRSKVSDLLEVVRGAGFTP
Resp: -0.000584

Req: Report soluble fraction (log2), nothing else, for this sequence: HMSGFFVYPNPAKSNIIHFPNKKSFYIYDTSGRLLIEGKGKDFIDVSTLDRGVYLLKTFENDIVKIII
Resp: -1.25

Req: Provide soluble fraction (log2) value for the following sequence: HMEKVLPFEFERKFKTNHTAWDFFSNQAPPSYRKTVIHWILSAKQEITRISRLEKLIAASEQQKRI
Resp: -0.319

Req: Look up and state reported soluble fraction (log2) for HMDRDQNVEEGQRSLKSEMGRFGLLIANMDDLAERVNYGNAEDMYAAIGAGDLRLMQVVHAAEEMLG
Resp: 0.127

Req: Complete the entry with soluble fraction (log2) for HMKWYDSDKGFGFLSQEEGEDVYVRSSALPAGVEGLKAGQRVEFGIASGRRGPQALSL
Resp: -0.0714

Req: Please indicate soluble fraction (log2) recorded for HMADGEWAEMQRQLTAAGLLVVGRAAQERIQRLSDISPLIEAAQRSNVVMLSERTVDEVLTLVPT
Resp: -0.18

Req: Give the reported soluble fraction (log2) for this sequence. HMLEIRGFTVLLSDRGIVGIIEEIIQNPGQDLLRILSPEKREILVPLHSDLITGINKKKKTITMNLPDGL
Resp: -0.465

Req: Supply recorded soluble fraction (log2) for HMDAQEAAWARKMMETLPEKQKLSVALRIEEGLSFKEIGEIIGSSEGAARVNYFHGIRRLRELL here.
Resp: -0.688

Req: // fetch soluble fraction (log2) given entry HMQLDDDQKEELILKLIDSLDTTKKGAPLTELAREAAKSNIGESELEEITTSLLDKGLVYEPTIGKMKR
Resp: 0.216

Req: Note soluble fraction (log2) for the sequence shown: HMLPVFNYQVYRTHGLIYVYAKDNDSFDQIARSMGFKAKQLMKFNEVPEDFPLQAGDIVYLEKKKK
Resp: -1.42

Req: For the sequence HMKLTNIQYETLKVVVESRAKIDEEEGITIKLEDIKKYIDQAISFTGLVGDDEDYKKLFADMEYRFKIQ , give its measured soluble fraction (log2) value.
Resp: -2.38

Req: # return recorded soluble fraction (log2) for entry HMESYWVVLRPMAAGTQIGANDLGYRSVALGAAAKNYLAASTNPIGSITRRRLVAGELLQGSSLTDDARA
Resp: -0.873

Req: Fill in soluble fraction (log2) for record HMKEFSFNGGKVIMNYEADRIQIKHDSRPNQEVITLMKRNGFKWSPTNQAWQRQITGNAIYVTKNLLKS
Resp: -1.35

Req: Provide measured soluble fraction (log2) value, entry: HMEDYYKILGVSKDASIDDIKKSYRKLSLQNHPDRNKSPQASENFAKINSAYEVLSDQRKKRQYDMQQSM
Resp: 0.0897

Req: Give a short answer stating reported soluble fraction (log2) for HMKVNQFEVEGNQRYSTEEIAKASGVSKGDNLFLVNKTETARKLLDELAYVRSVNIKRKLPDTLVITVAE .
Resp: 0.399
